- System: Acar19
- Format: binding, great reed warbler Acrocephalus arundinaceus
- Run Parameters: Table S5, half-life estimated from dissociation in scintillation proximity assay
Lab note - cut at 0.2 h for Stability T½ (h), peptide - Acar19: T if strictly below, F if not.

Past entries and their recorded results:
SYLQAIGIL [9-mer peptide] = T
TFMGMNVQF [9-mer peptide] = T
FWPQHFGLI [9-mer peptide] = T

Record DAAVVFPPV [9-mer peptide] : is its Stability T½ (h), peptide - Acar19 strictly below 0.2 h?
F

What would you report for TYSPALNKM [9-mer peptide] ?
T

What would you report for SYQALAFDI [9-mer peptide] ?
F

What would you report for DASFNASAI [9-mer peptide] ?
F

What would you report for ITAALAWSL [9-mer peptide] ?
T

What would you report for EDFEIFYNL [9-mer peptide] ?
F

---

- Test system: Acar19
- Assay type: binding, great reed warbler Acrocephalus arundinaceus
- Run Parameters: Table S5, half-life estimated from dissociation in scintillation proximity assay
Decision: Stability T½ (h), peptide - Acar19 >= 0.4 h yields Yes, all other cases yield No.

VQHNIKHSF [9-mer peptide] = No
DSFPNSVTI [9-mer peptide] = Yes
IQNEIMKPL [9-mer peptide] = No
DYLQCVLQI [9-mer peptide] = Yes
RPAPATGAL [9-mer peptide] = No

Does the reported Stability T½ (h), peptide - Acar19 for TTLSIYFLL [9-mer peptide] fall at or above the 0.4 h mark?
No

---

- Test system: Acar19
- Assay type: binding, great reed warbler Acrocephalus arundinaceus
- Run Parameters: Table S5, half-life estimated from dissociation in scintillation proximity assay
Collected Stability T½ (h), peptide - Acar19 values appear next to each entry.
// units = h; emit number, no label

Example cases with answers are listed next.
FYPPVLQPI [9-mer peptide] = 0.3
IPAPGLGAL [9-mer peptide] = 0.2

Data request, read-out Stability T½ (h), peptide - Acar19, for FFSPVIASL [9-mer peptide]
0.9

What would you report for YISPIFIPM [9-mer peptide] ?
0.1

What would you report for TYMFTHIDL [9-mer peptide] ?
0.1

What would you report for YFDPANGKF [9-mer peptide] ?
0.1

What would you report for KSNGAQQWL [9-mer peptide] ?
0.1

What would you report for IANTTDHFF [9-mer peptide] ?
0.2

What would you report for IQNALEKAL [9-mer peptide] ?
0.1

What would you report for ENALLVALF [9-mer peptide] ?
0.1

---

- Tested on: Acar19
- Format: binding, great reed warbler Acrocephalus arundinaceus
- Run Parameters: Table S5, half-life estimated from dissociation in scintillation proximity assay
Endpoint Name: Stability T½ (h), peptide - Acar19

Example cases with answers are listed next.
DQIRNMSVI [9-mer peptide] = 0.3 h
AFHQLVQVI [9-mer peptide] = 0.3 h
HYNAFHWAI [9-mer peptide] = 0.3 h
KFHQIEKEF [9-mer peptide] = 0.3 h
DFNEAIQAY [9-mer peptide] = 0.3 h
HYNAFQWAI [9-mer peptide] = 0.3 h
DFGYATMAK [9-mer peptide] = 0.3 h

Proceeding to the next sequence to report its Stability T½ (h), peptide - Acar19.
Data request, read-out Stability T½ (h), peptide - Acar19, for DHIPIINTL [9-mer peptide]
0.3 h

---

- Tested on: Acar19
- Type: binding, great reed warbler Acrocephalus arundinaceus
- Run Parameters: Table S5, half-life estimated from dissociation in scintillation proximity assay
Collected Stability T½ (h), peptide - Acar19 values appear next to each entry.
// units = h; emit number, no label

Example cases with answers are listed next.
DMSTNAEYF [9-mer peptide] = 0.2
DAAKNQVAM [9-mer peptide] = 0.2
HTAEIQQFF [9-mer peptide] = 0.3
ISARGQELF [9-mer peptide] = 0.1

Please tell me: Stability T½ (h), peptide - Acar19 of DYAMHGTVF [9-mer peptide] , system Acar19?
2.4

---

- Tested on: Acar19
- Format: binding, great reed warbler Acrocephalus arundinaceus
- Run Parameters: Table S5, half-life estimated from dissociation in scintillation proximity assay
Collected Stability T½ (h), peptide - Acar19 values appear next to each entry.
// units = h; emit number, no label

YYNAFQWAI [9-mer peptide] = 0.4
DYQGLPLEF [9-mer peptide] = 3.5

Data request, read-out Stability T½ (h), peptide - Acar19, for DMNLEQWSV [9-mer peptide]
0.4

What would you report for EAAGIAACL [9-mer peptide] ?
0.6

What would you report for FSIMIYFTF [9-mer peptide] ?
0.2

What would you report for NVGRILGYV [9-mer peptide] ?
0.5

What would you report for YQAGISAAL [9-mer peptide] ?
0.2

What would you report for GFPSLESSF [9-mer peptide] ?
0.1

---

- Test system: Acar19
- Type: binding, great reed warbler Acrocephalus arundinaceus
- Run Parameters: Table S5, half-life estimated from dissociation in scintillation proximity assay
Collected Stability T½ (h), peptide - Acar19 values appear next to each entry.
// units = h; emit number, no label

Example cases with answers are listed next.
IYGIFQSTF [9-mer peptide] = 0.1
IQNKLSSTF [9-mer peptide] = 0.2

Data request, read-out Stability T½ (h), peptide - Acar19, for VMKRNFIDF [9-mer peptide]
0.1
